B1: SOAT1 (parent)
chain: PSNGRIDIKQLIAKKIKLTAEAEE

- Variants of: B1
- ASSAY_PROCEDURE: protein stability index of a GFP-peptide fusion (GPS, HEK-293T) (PSI 1-6); higher = more stable;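 note: lentivirally expressed fusions sorted by FACS into six bins by GFP to DsRed ratio, PSI derived from sequencing read proportions per bin multiplied by bin number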
- MEASUREMENT_PARAMETERS: c terminus: a fixed tail appended
I'd appreciate it if you could supply protein stability index values for the items below.
Provide a numeric answer; units are not to be included.

Reported protein stability index, variant K14C : ____
3.37

Likewise for I8K ?
3.64

Likewise for K9S ?
3.28

Likewise for L18A ?
3.62

Likewise for K9V ?
2.9
